# experimental_system: T1, recombinant cynomolgus CLL-1 extracellular domain (ECD, amino acids 65-265) fused to an N-terminal Flag (cynomolgus monkey)
# T1 construct: Construct stated for the immunogen; also called CynoCLL-1 Flag; cynoCLL-1
# T1 chain: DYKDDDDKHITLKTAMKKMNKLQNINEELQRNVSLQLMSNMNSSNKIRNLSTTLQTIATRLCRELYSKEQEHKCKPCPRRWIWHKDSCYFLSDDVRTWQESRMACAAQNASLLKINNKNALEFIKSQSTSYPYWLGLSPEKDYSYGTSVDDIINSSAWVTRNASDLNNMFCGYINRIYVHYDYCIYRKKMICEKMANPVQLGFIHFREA
# protocol_summary: SPR (Biacore T200), IgG captured by anti-human Fc, CLL-1 as analyte
measure_name: kon
Answer shape: numeric part, then the unit.

Prompt: Record request: kon value, item 21C9.L2H3E54 (antibody, V domains shown) VH: EVQLVQSGAEVKKPGASVKVSCKASGYTFTDYYLDWVRQAPGQGLEWIGRVNPYEGGTIYNQKFKGRVTLTRDTSTSTAYLELSSLRSEDTAVYYCARDHYRYDPLLDYWGQGTLVTVSS VL: DIQMTQSPSSLSASVGDRVTITCKASQDVSTAVAWFQQKPGKAPKLLIYSPSYRYTGVPSRFSGSGSGTDFTLTISSLQPEDFATYYCQQLYSTPYTFGQGTKVEIK
Response: 748 M⁻¹ s⁻¹

Prompt: Quick one: kon for 6E7.L4H1eS54 (antibody, V domains shown, IgG) VH: EVQLVQSGAEVKKPGASVKVSCKASGYSFTDYYMHWVRQAPGQGLEWIGRINPYSGAAFYSQNFKDRVTLTVDTSTSTAYLELSSLRSEDTAVYYCAIERGADLEGYAMDYWGQGTLVTVSS VL: DIQMTQSPSSLSASVGDRVTITCRASQSVSTSSYNYMHWYQQKPGKPPKLLIKYASNLESGVPSRFSGSGSGTDFTLTISSLQPEDFATYYCQHSWEIPLTFGQGTKVEIK ?
Response: 513000 M⁻¹ s⁻¹

Prompt: So what does the record say about kon for 21C9.L2H3D54 (antibody, V domains shown) VH: EVQLVQSGAEVKKPGASVKVSCKASGYTFTDYYLDWVRQAPGQGLEWIGRVNPYDGGTIYNQKFKGRVTLTRDTSTSTAYLELSSLRSEDTAVYYCARDHYRYDPLLDYWGQGTLVTVSS VL: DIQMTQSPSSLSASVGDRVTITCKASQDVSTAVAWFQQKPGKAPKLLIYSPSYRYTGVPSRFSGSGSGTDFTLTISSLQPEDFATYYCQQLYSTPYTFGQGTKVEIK ?
Response: 40700 M⁻¹ s⁻¹

Prompt: Name the reported kon value associated with the binder 6E7.L4H1e (antibody, V domains shown, humanized, assessed in the form of an IgG; also called humanized 6E7.L4H1e; h6E7) VH: EVQLVQSGAEVKKPGASVKVSCKASGYSFTDYYMHWVRQAPGQGLEWIGRINPYNGAAFYSQNFKDRVTLTVDTSTSTAYLELSSLRSEDTAVYYCAIERGADLEGYAMDYWGQGTLVTVSS VL: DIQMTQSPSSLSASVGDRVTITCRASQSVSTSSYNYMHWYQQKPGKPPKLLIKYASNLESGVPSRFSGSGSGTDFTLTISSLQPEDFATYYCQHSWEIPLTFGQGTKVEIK
Response: 804000 M⁻¹ s⁻¹

Prompt: Any idea what its kon is? The binder is 21C9.L2H3S54 (antibody, V domains shown) VH: EVQLVQSGAEVKKPGASVKVSCKASGYTFTDYYLDWVRQAPGQGLEWIGRVNPYSGGTIYNQKFKGRVTLTRDTSTSTAYLELSSLRSEDTAVYYCARDHYRYDPLLDYWGQGTLVTVSS VL: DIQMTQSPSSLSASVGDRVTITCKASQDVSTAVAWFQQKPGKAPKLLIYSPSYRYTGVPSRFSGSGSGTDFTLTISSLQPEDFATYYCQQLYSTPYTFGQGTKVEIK
Response: 3660 M⁻¹ s⁻¹

Prompt: Entry 6E7.L4H1eD54 (antibody, V domains shown, IgG; also called h6E7D; H6E7.L4H1D54) VH: EVQLVQSGAEVKKPGASVKVSCKASGYSFTDYYMHWVRQAPGQGLEWIGRINPYDGAAFYSQNFKDRVTLTVDTSTSTAYLELSSLRSEDTAVYYCAIERGADLEGYAMDYWGQGTLVTVSS VL: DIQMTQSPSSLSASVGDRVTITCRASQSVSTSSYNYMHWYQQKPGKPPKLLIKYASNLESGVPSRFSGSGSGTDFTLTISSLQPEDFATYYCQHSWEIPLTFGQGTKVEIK has what kon?
Response: 178000 M⁻¹ s⁻¹

Prompt: Suppose we examine the binder 6E7.L4H1eE54 (antibody, V domains shown, IgG) VH: EVQLVQSGAEVKKPGASVKVSCKASGYSFTDYYMHWVRQAPGQGLEWIGRINPYEGAAFYSQNFKDRVTLTVDTSTSTAYLELSSLRSEDTAVYYCAIERGADLEGYAMDYWGQGTLVTVSS VL: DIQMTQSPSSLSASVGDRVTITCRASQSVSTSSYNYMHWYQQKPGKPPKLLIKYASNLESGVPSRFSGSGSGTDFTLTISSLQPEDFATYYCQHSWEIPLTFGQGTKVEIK ; what kon value has been reported?
Response: 664000 M⁻¹ s⁻¹

Prompt: For 21C9.L2H3A54 (antibody, V domains shown) VH: EVQLVQSGAEVKKPGASVKVSCKASGYTFTDYYLDWVRQAPGQGLEWIGRVNPYAGGTIYNQKFKGRVTLTRDTSTSTAYLELSSLRSEDTAVYYCARDHYRYDPLLDYWGQGTLVTVSS VL: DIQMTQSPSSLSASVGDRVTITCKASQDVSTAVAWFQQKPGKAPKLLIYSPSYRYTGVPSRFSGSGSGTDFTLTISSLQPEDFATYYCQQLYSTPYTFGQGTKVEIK , what is its reported kon?
Response: 445 M⁻¹ s⁻¹
